The values you see were collected from patent US10689367B2.

Target: human APJ receptor (Homo sapiens (Human))
Test: [35S]GTPγS binding assay on membranes from CHO cells stably expressing human APJ receptor
Conditions: membranes of CHO cells stably expressing human APJ receptor, read-out: Activity hAPJ SPA EC50 IP
With a cut-off of 0.3 nM, any EC50 strictly below it is called Condition met; any EC50 meeting it or above is called Condition not met.

Consider the following illustrative entries.
MOLECULE	CLASSIFICATION
COC[C@@H](C)n1c(NS(=O)(=O)[C@@H](C)[C@@H](OC(C)C)c2ncc(Cl)cn2)nnc1-c1cccc(OC)n1	Condition not met
COc1cccc(-c2nnc(NS(=O)(=O)[C@@H](C)[C@H](OC)c3ncc(Cl)cn3)n2[C@@H](C)c2ccon2)n1 (single isomer, unassigned) [Example 265.0]	Condition not met
CC[C@H]([C@@H]1CCCCO1)n1c(NS(=O)(=O)[C@@H](C)[C@H](OC)c2ncc(Cl)cn2)nnc1-c1cccc(OC)n1 (single isomer, unassigned) [Example 327.0]	Condition met

Inquiry: A record lists "COCC1(n2c(NS(=O)(=O)[C@@H](C)[C@H](OC)c3ncc(Cl)cn3)nnc2-c2cccc(OC)n2)CCC1" . Is its EC50 below 0.3 nM?
Reply text: Condition not met

Inquiry: A record lists COc1cccc(-c2nnc(NS(=O)(=O)[C@@H](C)[C@H](OC)c3ncc(Cl)cn3)n2[C@H](C)c2cccnc2)n1 (single isomer, unassigned) [Example 351.0] . Is its EC50 below 0.3 nM?
Reply text: Condition not met

Inquiry: A record lists "COC[C@@H](C)n1c(NS(=O)(=O)[C@@H](C)[C@H](OC)c2ncc(Cl)cn2)nnc1-c1cncc(C)c1" . Is its EC50 below 0.3 nM?
Reply text: Condition not met

----------
Molecular target: human APJ receptor (Homo sapiens (Human))
Assay: [35S]GTPγS binding assay on membranes from CHO cells stably expressing human APJ receptor
Conditions: membranes of CHO cells stably expressing human APJ receptor, read-out: Activity hAPJ SPA EC50 IP
OBSERVABLE: EC50 (nM)
Give bare numbers, in nM.

Record excerpt, results attached:
COMPOUND	EC50, nM
COc1cccc(-c2nnc(NS(=O)(=O)[C@@H](C)[C@H](OC)c3ncc(Cl)cn3)n2CC[S@+](C)[O-])n1 (single isomer, unassigned) [Example 95.0]	26
COCCOc1cccc(-c2nnc(NS(=O)(=O)[C@@H](C)[C@H](OC)c3ncc(Cl)cn3)n2C(COC)COC)n1	17
COCC(COC)n1c(NS(=O)(=O)[C@@H](C)[C@H](C)c2cnc(C)cn2)nnc1-c1cccc(OC)n1	20
COc1cccc(-c2nnc(NS(=O)(=O)[C@@H](C)[C@H](OC)c3ncc(Cl)cn3)n2[C@@H]2CCC23CCC3)n1 (single isomer, unassigned) [Example 92.0]	1.2
COc1cccc(-c2nnc(NS(=O)(=O)[C@@H](C)[C@H](OC)c3ncc(Cl)cn3)n2CCc2ccccn2)n1	69

Attention now turns to another entry.
Inquiry: Quick check: EC50 of COc1cccc(-c2nnc(NS(=O)(=O)[C@@H](C)[C@H](OC)c3ncc(Cl)cn3)n2C[C@@H]2CCC[C@H](C)O2)n1 (single isomer, unassigned) [Example 308.0] ?
Reply text: 1.9

----------
Target: human APJ receptor (Homo sapiens (Human), UniProt P35414)
Sequence (P35414 whole entry): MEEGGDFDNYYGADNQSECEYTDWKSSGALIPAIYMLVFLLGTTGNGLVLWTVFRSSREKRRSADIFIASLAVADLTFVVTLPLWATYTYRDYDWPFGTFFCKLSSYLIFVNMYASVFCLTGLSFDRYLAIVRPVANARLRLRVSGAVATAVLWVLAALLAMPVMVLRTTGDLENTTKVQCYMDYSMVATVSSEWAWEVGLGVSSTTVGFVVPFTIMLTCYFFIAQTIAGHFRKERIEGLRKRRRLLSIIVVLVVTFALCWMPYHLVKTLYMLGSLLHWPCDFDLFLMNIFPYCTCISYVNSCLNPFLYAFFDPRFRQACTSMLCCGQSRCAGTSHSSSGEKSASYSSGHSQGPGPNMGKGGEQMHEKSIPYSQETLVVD
Assay: [35S]GTPγS binding assay on membranes from CHO cells stably expressing human APJ receptor
Details: membranes of CHO cells stably expressing human APJ receptor, read-out: Activity hAPJ SPA EC50 IP
pEC50: −log10 of the molar value.
Label scheme for pEC50: lower than 8 is F, 8 and above is T.

Consider the following illustrative entries.
MOLECULE	STUDY SYSTEM	CLASSIFICATION
COc1cccc(-c2nnc(NS(=O)(=O)[C@@H](C)[C@H](OC)c3ncc(Cl)cn3)n2[C@H]2C[C@@H](OC)C2)n1 [Example 180.0]	human APJ receptor (Homo sapiens (Human), UniProt P35414)	F
COc1cccc(-c2nnc(NS(=O)(=O)[C@@H](C)[C@H](OC)c3ncc(Cl)cn3)n2[C@H](C)[C@@H]2CCCCO2)n1 (single isomer, unassigned) [Example 318.0]	human APJ receptor (Homo sapiens (Human), UniProt P35414)	T
COCCn1c(NS(=O)(=O)[C@@H](C)[C@@H](OC(C)C)c2ncc(Cl)cn2)nnc1-c1cncc(C)c1 [Example 12.0]	human APJ receptor (Homo sapiens (Human), UniProt P35414)	F

Now look at this one.
Inquiry: Reported pEC50 reaches at least 8 for CCOCCn1c(NS(=O)(=O)[C@@H](C)[C@H](OC)c2ncc(Cl)cn2)nnc1-c1cccc(OC)n1 [Example 22.0] ?
Reply text: T

----------
Target: human APJ receptor (Homo sapiens (Human))
Assay: [35S]GTPγS binding assay on membranes from CHO cells stably expressing human APJ receptor
Conditions: membranes of CHO cells stably expressing human APJ receptor, read-out: Activity hAPJ SPA EC50 IP
Hi there, I'd appreciate the recorded pEC50 for every entry that follows.
Answers are plain numbers, as −log10 of the molar value.

Parameters: items (list). Returns: pEC50 for each item.
1. COc1cccc(-c2nnc(NS(=O)(=O)[C@@H](C)[C@H](C)c3ncc(Cl)cn3)n2Cc2cc(C)on2)n1
2. COc1cccc(-c2nnc(NS(=O)(=O)[C@@H](C)[C@H](OC)c3ncc(Cl)cn3)n2C[C@H]2CCCCO2)n1 (racemic) [Example 288.0]
3. [2H]C1([2H])C(n2c(NS(=O)(=O)[C@@H](C)[C@H](OC)c3ncc(Cl)cn3)nnc2-c2cccc(OC)n2)C1([2H])[2H]
4. COc1cccc(-c2nnc(NS(=O)(=O)[C@@H](C)[C@H](C)c3ncc(Cl)cn3)n2[C@@H](C)c2ccon2)n1 (racemic) [Example 267.0]

Reply text:
[7.92, 8.48, 8.17, 8.38]

Parameters: items (list). Returns: pEC50 for each item.
1. COc1cccc(-c2nnc(NS(=O)(=O)[C@@H](C)[C@@H](OC(C)C)c3ncc(C)cn3)n2[C@@H](C)c2noc(C)n2)n1 (single isomer, unassigned)
2. COc1cccc(-c2nnc(NS(=O)(=O)[C@@H](C)[C@H](OC)c3ncc(Cl)cn3)n2CCOC(F)F)n1
3. COc1cnc([C@@H](C)[C@H](C)S(=O)(=O)Nc2nnc(-c3cccc(OC)n3)n2C2CC2)cn1
4. COc1cccc(-c2nnc(NS(=O)(=O)[C@@H](C)[C@H](OC)c3ncc(Cl)cn3)n2[C@H](C)c2cscn2)n1 (single isomer, unassigned) [Example 344.0]
5. COc1cccc(-c2nnc(NS(=O)(=O)[C@@H](C)[C@@H](OC(C)C)c3ncc(C)cn3)n2[C@@H](C)c2ncn(C)n2)n1 (single isomer, unassigned) [Example 234.0]
6. COc1cccc(-c2nnc(NS(=O)(=O)[C@@H](C)[C@@H](OC(C)C)c3ncc(C)cn3)n2C[C@H]2CCCO2)n1 (racemic) [Example 277.0]

Reply text:
1. 8.06
2. 8.43
3. 7.51
4. 8.15
5. 7.08
6. 7.85

----------
Target: human APJ receptor (Homo sapiens (Human), UniProt P35414)
Experiment: [35S]GTPγS binding assay on membranes from CHO cells stably expressing human APJ receptor
Conditions: membranes of CHO cells stably expressing human APJ receptor, read-out: Activity hAPJ SPA EC50 IP
Hi there, I'd appreciate the recorded EC50 for every entry that follows.
Give bare numbers, in nM.

Record excerpt, results attached:
COMPOUND	EC50 [nM]
COCC(COC)n1c(NS(=O)(=O)[C@@H](C)[C@H](OC)c2ncc(Cl)cn2)nnc1-c1ccccn1 [Example 14.0]	6.4
COc1cccc(-c2nnc(NS(=O)(=O)[C@@H](C)[C@@H](OC(C)C)c3ncc(C)cn3)n2[C@@H](C)[C@H]2CCCO2)n1 (single isomer, unassigned) [Example 274.0]	2.2

Attention now turns to another entry.
Inquiry: Quick check: EC50 of CC[C@@H](c1conc1C)n1c(NS(=O)(=O)[C@@H](C)[C@H](C)c2ncc(Cl)cn2)nnc1-c1cccc(OC)n1 (single isomer, unassigned) [Example 231.0] ?
Reply text: 21

----------
Target: human APJ receptor (Homo sapiens (Human), UniProt P35414)
Experiment: [35S]GTPγS binding assay on membranes from CHO cells stably expressing human APJ receptor
Conditions: membranes of CHO cells stably expressing human APJ receptor, read-out: Activity hAPJ SPA EC50 IP
Hi there, I'd appreciate the recorded log10(EC50) for every entry that follows.
Lab note - EC50 converted to log10 from values in nM.

COMPOUND	STUDY SYSTEM	log10(EC50)
COc1cccc(-c2nnc(NS(=O)(=O)[C@@H](C)[C@H](OC)c3ncc(Cl)cn3)n2CC2CCOCC2)n1 [Example 302.0]	human APJ receptor (Homo sapiens (Human), UniProt P35414)	1.72

Parameters: items (list). Returns: log10(EC50) for each item.
1. CC[C@@H](C)n1c(NS(=O)(=O)[C@@H](C)[C@H](OC)c2ncc(Cl)cn2)nnc1-c1cccc(OC)n1 (single isomer, unassigned) [Example 54.0]
2. COc1cccc(-c2nnc(NS(=O)(=O)[C@@H](C)[C@H](OC)c3ncc(Cl)cn3)n2[C@@H](C)c2ncnn2C)n1 (single isomer, unassigned) [Example 248.0]
3. CC[C@H](c1c(C)noc1C)n1c(NS(=O)(=O)[C@@H](C)[C@H](OC)c2cnc(C)cn2)nnc1-c1cccc(OC)n1 (mixture of isomers) [Example 208.0]

Reply text:
[-0.30, 2.43, 1.62]

Parameters: items (list). Returns: log10(EC50) for each item.
1. COc1cccc(-c2nnc(NS(=O)(=O)[C@@H](C)[C@H](OC)c3ncc(Cl)cn3)n2CC2CCOC2)n1 (single isomer, unassigned) [Example 286.0]
2. COc1cccc(-c2nnc(NS(=O)(=O)[C@@H](C)[C@H](OC)c3ncc(Cl)cn3)n2C[C@@H]2CCC[C@H](C)O2)n1 (single isomer, unassigned) [Example 305.0]

Reply text:
1. 1.74
2. 0.60
